measured.on: SALL4 ZFC4 R900W (HT-SELEX) (Mus musculus, UniProt Q8BX22 870-940, R900W)
Sequence: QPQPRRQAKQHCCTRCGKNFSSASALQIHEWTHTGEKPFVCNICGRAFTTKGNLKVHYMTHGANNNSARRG
assay.method.text: HT-SELEX; high values mean tight binding
conditions.used: protein: recombinant; vector His6-GST; dsDNA, one strand shown
endpoint.name: binding signal
Reply with the number, then its unit.

[
  {
    "sequence.entry": "GTGTCA",
    "binding signal": "0.805 fold-change vs cycle 0"
  }
]

Incoming: Hello, I am looking for reported binding signal with SALL4 ZFC4 R900W (HT-SELEX) (Mus musculus, UniProt Q8BX22 870-940, R900W) for CAACCA . Could you help?
Outgoing: 0.804 fold-change vs cycle 0

Incoming: Hello, I am looking for reported binding signal with SALL4 ZFC4 R900W (HT-SELEX) (Mus musculus, UniProt Q8BX22 870-940, R900W) for CTTGCC . Could you help?
Outgoing: 0.384 fold-change vs cycle 0

Incoming: Hello, I am looking for reported binding signal with SALL4 ZFC4 R900W (HT-SELEX) (Mus musculus, UniProt Q8BX22 870-940, R900W) for ATCAGA . Could you help?
Outgoing: 1.43 fold-change vs cycle 0

Incoming: Hello, I am looking for reported binding signal with SALL4 ZFC4 R900W (HT-SELEX) (Mus musculus, UniProt Q8BX22 870-940, R900W) for CCATAA . Could you help?
Outgoing: 1.36 fold-change vs cycle 0

Incoming: Hello, I am looking for reported binding signal with SALL4 ZFC4 R900W (HT-SELEX) (Mus musculus, UniProt Q8BX22 870-940, R900W) for AGATGC . Could you help?
Outgoing: 0.721 fold-change vs cycle 0

Incoming: Hello, I am looking for reported binding signal with SALL4 ZFC4 R900W (HT-SELEX) (Mus musculus, UniProt Q8BX22 870-940, R900W) for GCCTGA . Could you help?
Outgoing: 0.386 fold-change vs cycle 0

Reference source: paper PMC9838217
